The measured values listed here are drawn from patent US20150258192A1.

- Target or system: cKit(V654A)(h) (Homo sapiens, UniProt P10721, V654A)
- Protocol description: Kinase Profiling Assay
- Type: biochemical
- Reported conditions: peptide 100 μM
No end group written: not given here.
Result type: % activity (%)
Hi! Could you send only the number? It should be in %, unit omitted.

Q: Please report the recorded % activity for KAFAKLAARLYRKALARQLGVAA [MMI-0400] .
Ans: 150

Q: Value lookup for % activity; key = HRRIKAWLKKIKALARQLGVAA (Mammal) [MMI-0500]
Ans: 223

Q: Recorded % activity for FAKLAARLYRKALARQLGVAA [MMI-0300] , please?
Ans: 134

Q: // lookup % activity for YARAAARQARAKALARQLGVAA [MMI-0100]
Ans: 69

====

- Target or system: Abl(T315I)(h) (Homo sapiens, UniProt P00519, T315I)
- Protocol description: Kinase Profiling Assay
- Assay type: biochemical
- Reported conditions: peptide 100 μM
No end group written: not given here.
Please go through the items and note down their % activity.
Lab note: write values as number then unit, every time.

Q: Which measured % activity value corresponds to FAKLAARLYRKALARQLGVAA [MMI-0300] ?
Ans: 97%

Q: Tell me the measured % activity of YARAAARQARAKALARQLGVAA [MMI-0100] , please.
Ans: 98%

Q: Endpoint output: % activity of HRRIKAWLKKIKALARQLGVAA (Mammal) [MMI-0500] . Value?
Ans: 16%

Q: Quick check: % activity of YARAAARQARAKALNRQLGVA (Mammal) [MMI-0200] ?
Ans: 108%

====

Please provide measured % activity for the entries that follow.
- Target or system: Met(M1268T)(h) (Homo sapiens, UniProt P08581, M1250T)
- Construct: purchased Millipore
- Protocol description: Kinase Profiling Assay
- Type: biochemical
- Reported conditions: peptide 100 μM
Numbers only; they are read as %.

Q: % activity for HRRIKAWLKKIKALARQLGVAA (Mammal) [MMI-0500] ?
Ans: 239

Q: For the sequence shown here, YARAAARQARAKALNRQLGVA (Mammal) [MMI-0200] , give the reported % activity.
Ans: 143

Q: Query: % activity; subject: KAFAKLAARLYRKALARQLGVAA [MMI-0400]
Ans: 265

Q: Sample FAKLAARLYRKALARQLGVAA [MMI-0300] — what was its % activity?
Ans: 255

====

What % activity was measured for each of the following?
- Target or system: LKB1(h) (Homo sapiens)
- Construct: purchased Millipore
- Sequence (Q15831 1-433): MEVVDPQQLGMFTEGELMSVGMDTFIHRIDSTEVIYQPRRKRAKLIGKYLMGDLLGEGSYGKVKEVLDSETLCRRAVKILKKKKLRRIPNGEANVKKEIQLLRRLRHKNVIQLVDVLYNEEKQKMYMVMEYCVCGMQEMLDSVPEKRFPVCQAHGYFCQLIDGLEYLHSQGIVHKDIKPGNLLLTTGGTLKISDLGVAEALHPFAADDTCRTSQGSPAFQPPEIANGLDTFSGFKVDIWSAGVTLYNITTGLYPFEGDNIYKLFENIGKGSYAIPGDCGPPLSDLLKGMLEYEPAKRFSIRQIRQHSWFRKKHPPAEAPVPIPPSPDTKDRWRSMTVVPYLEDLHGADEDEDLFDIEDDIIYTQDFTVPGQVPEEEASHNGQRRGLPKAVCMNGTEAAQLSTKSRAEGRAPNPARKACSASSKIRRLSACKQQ
- Sequence (Q7RTN6 1-431 partner): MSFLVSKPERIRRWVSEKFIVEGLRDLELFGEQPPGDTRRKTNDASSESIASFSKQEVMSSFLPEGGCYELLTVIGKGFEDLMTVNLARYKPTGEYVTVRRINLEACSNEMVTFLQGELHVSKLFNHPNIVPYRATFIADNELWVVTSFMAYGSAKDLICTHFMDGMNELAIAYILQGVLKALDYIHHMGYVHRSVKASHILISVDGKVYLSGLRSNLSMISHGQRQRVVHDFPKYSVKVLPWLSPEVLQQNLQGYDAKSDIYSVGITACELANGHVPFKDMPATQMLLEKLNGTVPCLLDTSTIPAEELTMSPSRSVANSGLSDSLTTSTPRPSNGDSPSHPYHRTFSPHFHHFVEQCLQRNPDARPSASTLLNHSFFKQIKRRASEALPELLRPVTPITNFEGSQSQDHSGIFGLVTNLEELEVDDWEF
- Sequence (Q9Y376 1-341 partner): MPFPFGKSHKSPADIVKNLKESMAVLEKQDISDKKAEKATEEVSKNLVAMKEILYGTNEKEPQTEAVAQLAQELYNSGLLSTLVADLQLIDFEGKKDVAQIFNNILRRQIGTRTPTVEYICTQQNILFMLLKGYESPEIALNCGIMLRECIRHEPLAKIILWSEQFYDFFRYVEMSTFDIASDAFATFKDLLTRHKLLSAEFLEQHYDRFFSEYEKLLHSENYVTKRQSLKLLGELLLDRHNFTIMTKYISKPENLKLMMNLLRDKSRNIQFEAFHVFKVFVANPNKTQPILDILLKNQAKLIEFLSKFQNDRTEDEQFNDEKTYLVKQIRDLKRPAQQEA
- Protocol description: Kinase Profiling Assay
- Assay type: biochemical
- Reported conditions: peptide 100 μM
Your answer is read as %, so omit the unit and give the number.

Q: // lookup % activity | system=LKB1(h) (Homo sapiens) | key= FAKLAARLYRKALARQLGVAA [MMI-0300]
Ans: 101

Q: Entry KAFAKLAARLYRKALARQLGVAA [MMI-0400] , system LKB1(h) (Homo sapiens): what % activity was measured?
Ans: 89

Q: Request - read-out % activity | tested on LKB1(h) (Homo sapiens) | sequence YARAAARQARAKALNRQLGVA (Mammal) [MMI-0200]
Ans: 99

Q: Request - read-out % activity | tested on LKB1(h) (Homo sapiens) | sequence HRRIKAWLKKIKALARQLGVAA (Mammal) [MMI-0500]
Ans: 51
